Listed here: items and their measured ELISA signal at phage dilution factor 1.
Molecular target: T1, TRBV5-1 antigenic peptide No. 1 (…) conjugated to BSA (human)
T1 sequence (peptide): TQTPRYLIKTRGQQ
Experiment: ELISA; confirmatory monoclonal phage ELISA; antigens peptide alone, peptide-BSA, peptide-biotin; controls PBS, 10% BSA-PBS, PBS-streptavidin; phage dilution factors 1, 3, 9

[
  {
    "binder": "scFv clone A5 (scFv, V domains shown, as printed identical to the VH of A2; tested as phage clone in the confirmatory monoclonal ELISA; source: phage display clone from the human naive scFv library LiAb-SFMAX (Proteogenix), amplified in E. coli TG1) VH: QVQLQQSGPGLVKPSQTLSLTCAISGDSVSSNSAAWNWIRQSPSRGLEWLGRTYYRSKWYNDYAVSVKSRITINPDTSKNQFSLQLNSVTPEDTAVYYCARDQAAAEVYFDYWGQGTLVTVSS VL: NFMLTQPHSVSESPGKTVTISCTRSSGSIASNYVQWYQQRPGSSPTTVIYEDNQRPSGVPDRFSGSIDSSSNSASLTISGLKTEDEADYYCQSYDSSNHWVFGGGTKVTVL",
    "ELISA signal at phage dilution factor 1": 4.09
  },
  {
    "binder": "scFv clone A12 (scFv, V domains shown, tested as phage clone in the confirmatory monoclonal ELISA; lead scFv from which the r-hIgG1 mAb was made; also called lead scFv; source: phage display clone from the human naive scFv library LiAb-SFMAX (Proteogenix), amplified in …) VH: QVQLQQWGAGLLKPSETLSLTCAVYGGSFSGYYWSWIRQPPGKGLEWIGEINHSGSTNYNPSLKSRVTISVDTSKNQFSLKLSSVTAADTAVYYCARWDLDYWGQGTLVTVSS VL: EIVLTQSPLSLPVTLGQSASISCRSSQSLVHSDGNTYLNWFQQRPGQSPRRLIYQVSKRDSGVPDRFSGSGSGTDFTLRISRVEAEDVGFYYCMQGTHWPPITFGQGTRLEIK",
    "ELISA signal at phage dilution factor 1": 2.93
  },
  {
    "binder": "scFv clone A8 (scFv, V domains shown, tested as phage clone in the confirmatory monoclonal ELISA; source: phage display clone from the human naive scFv library LiAb-SFMAX (Proteogenix), amplified in E. coli TG1) VH: QVQLVQSGPEMKKAGASVRVSCKGSGYTFSSFDINWVRQVPGQGLEWMGWMNPDTGNTGLAQKFQGRVTMTRDTSIRTAYMELRSLRSDDTAVYYCARDAPRNGRGMDVWGQGTMVTVSS VL: SYELTQPPSVSVSPGQTARITCSGDALPKQYAYWYQQKPGQAPVLVIYQDTKRPSGIPERFSGSSSGTTVTLTISGVQAEDEADYYCQSADSSGTYPVFGGGTKLTVL",
    "ELISA signal at phage dilution factor 1": 4.58
  }
]

Value source: paper PMC11686114
